- Test system: SARS coronavirus 3C-like protease (3CLpro, nsp5)
- experimental protocol: blockers of SARS 3CLpro activity – biochemical, fluorescence, set 2, late-stage follow-up (AID 488984)
- experimental setup: recombinant 3CLpro, fluorogenic peptide cleavage; at 100 µM; active compounds read high
Here, each record is paired with measured inhibition data.
Reply numerically in %, unit not repeated.

These recorded examples may help you get a feel for the data.
molecule	unit label	inhibition
CC(C)(C)NC(=O)C(c1ccsc1)N(C(=O)c1ccc(C#N)cc1)C1CC1 (centres undefined)	%	11.2
CC(C)(C)NC(=O)C(c1ccsc1)N(C(=O)Cc1cccnc1)C1CC1 (centres undefined)	%	25.9
CC(C)c1ccc(N(C(=O)Cc2c[nH]c3ccccc23)C(C(=O)NC(C)(C)C)c2cccnc2)cc1 (centres undefined)	%	3.78
Cc1nccn1CC(=O)N(c1ccc(NS(C)(=O)=O)cc1)C(C(=O)NC(C)(C)C)c1ccsc1 (centres undefined)	%	0.44
CC(C)(C)NC(=O)C(c1cccnc1)N(C(=O)c1ccc(C(F)(F)F)nc1)C1CC1 (centres undefined)	%	5.34
CC(C)(C)NC(=O)C(c1cccnc1)N(C(=O)c1ccc(C#N)cc1)c1ccc(C(C)(C)C)cc1 (centres undefined)	%	-0.02

Query: Given the entry CC(C)(C)NC(=O)C(c1cccnc1)N(C(=O)c1ccco1)c1ccc(OC(F)F)cc1 (centres undefined) , report its measured inhibition.
Reply: 45.5

Query: Next molecule up: CC(C)(C)NC(=O)C(c1cccnc1)N(C(=O)Cc1cccc2ccccc12)c1ccc(C(C)(C)C)cc1 (centres undefined)
Reply: 19.6

Query: And for CC(C)(C)NC(=O)C(c1ccsc1)N(C(=O)Cc1cccc2ccccc12)c1ccc(C(C)(C)C)cc1 (centres undefined) ?
Reply: 22.3
